- Measured Target: IV-cPLA(2) (Homo sapiens, UniProt P47712)
- Sequence (P47712 1-749): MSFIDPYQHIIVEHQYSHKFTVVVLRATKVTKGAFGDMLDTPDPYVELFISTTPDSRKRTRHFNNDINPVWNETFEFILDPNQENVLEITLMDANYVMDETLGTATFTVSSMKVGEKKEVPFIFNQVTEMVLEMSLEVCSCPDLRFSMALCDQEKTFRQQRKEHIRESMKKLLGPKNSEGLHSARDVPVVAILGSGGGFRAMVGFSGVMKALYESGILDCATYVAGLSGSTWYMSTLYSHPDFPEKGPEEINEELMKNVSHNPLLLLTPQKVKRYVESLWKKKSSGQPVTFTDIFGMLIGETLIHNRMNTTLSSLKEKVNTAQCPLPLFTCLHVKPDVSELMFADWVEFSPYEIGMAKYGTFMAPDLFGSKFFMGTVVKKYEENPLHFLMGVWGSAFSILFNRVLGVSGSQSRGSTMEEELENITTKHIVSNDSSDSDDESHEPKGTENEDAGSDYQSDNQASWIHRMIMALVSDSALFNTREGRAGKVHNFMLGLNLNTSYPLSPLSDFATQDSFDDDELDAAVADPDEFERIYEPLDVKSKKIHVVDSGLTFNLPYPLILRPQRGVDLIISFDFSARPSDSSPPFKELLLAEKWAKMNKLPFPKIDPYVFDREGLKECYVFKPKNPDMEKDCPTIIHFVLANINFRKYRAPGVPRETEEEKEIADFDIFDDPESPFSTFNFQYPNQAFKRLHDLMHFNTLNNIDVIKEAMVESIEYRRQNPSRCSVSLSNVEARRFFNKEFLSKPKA
- Assay Name: PLA(2) activity, hydrolysis of bis-BODIPY FL C11-PC in activated U937 cells
- Assay type: cell-based
- Reported Conditions: 0.1 μM
- Text: […]
Classify by measured Inhibition (%): Condition met if it is equal to or exceeds 80%, Condition not met if it is smaller.

Consider the following illustrative entries.
[
  {
    "Compound": "COS(=O)(=O)NC(=O)N1C(=O)OC(c2ccc(C)cc2)C1C (stereo not drawn)",
    "Class": "Condition met"
  },
  {
    "Compound": "CC1C(c2ccc(Cl)cc2)SC(=O)N1C(=O)NN(C)C (stereo not drawn)",
    "Class": "Condition met"
  },
  {
    "Compound": "CC1C(c2ccc(Cl)cc2)SC(=NC#N)N1Cc1ccc(Cl)nc1 (stereo not drawn)",
    "Class": "Condition not met"
  },
  {
    "Compound": "CC(C)N=C1OC(c2ccc(Cl)cc2)C(C)N1C(=O)NC1CCCCC1 (stereo not drawn)",
    "Class": "Condition met"
  },
  {
    "Compound": "CCOC(=O)CCC(NC(=O)N1C(=O)SC(c2ccc(Cl)cc2)C1C)C(=O)OCC (stereo not drawn)",
    "Class": "Condition not met"
  },
  {
    "Compound": "Cc1ccc(C2OC(=O)N(C(=O)NCCCl)C2C)cc1 (stereo not drawn)",
    "Class": "Condition not met"
  }
]

Qu. Could you verify whether the entry CC1C(c2cccnc2)SC(=O)N1C(=O)NC1CCCCC1 (stereo not drawn) shows Inhibition (%) of no less than 80%?
Ans. Condition not met

Qu. Could you verify whether the entry CCN(C(C)C)S(=O)(=O)NC(=O)N1C(=O)OC(c2ccc3ccccc3c2)C1C (stereo not drawn) shows Inhibition (%) of no less than 80%?
Ans. Condition not met

Qu. Could you verify whether the entry CC1C(c2ccc(Cl)cc2)SC(=O)N1C(=S)NCCN1CCOCC1 (stereo not drawn) shows Inhibition (%) of no less than 80%?
Ans. Condition not met
